- Tested on: Phosphorylated Ribosomal Protein S6 (RPS6) in THP-1 cells
- protocol notes: THP-1 RPS6 ELISA assay
- Assay type: cell-based, human
- run parameters: Homo sapiens, THP-1, THP-1 cells, 10 nM MCP-1; read-out: PI3Kγ_THP1_RPS6_ELISA IC50
Where a name gives a salt, the structure may show the parent alone.
Measured IC50 by item
metric: IC50

INSERT INTO measurements (compound, result) VALUES
  ('CC(NC(=O)c1c(N)nn2cccnc12)c1cc(Cl)c2cn[nH]c2c1OC(F)F (stereo not drawn) [Example 83, trifluoroacetate]', '< 500 nM'),
  ('CC(NC(=O)c1c(N)nn2cccnc12)c1cc(Cl)c2cncn2c1N1CCC(C)(C#N)CC1 (stereo not drawn) [Example 88, trifluoroacetate]', '< 500 nM'),
  ('CC(NC(=O)c1c(N)nn2cccnc12)c1cc(Cl)c2ccnn2c1-c1cccnc1 (stereo not drawn) [Example 59, trifluoroacetate]', '< 500 nM'),
  ('CC(NC(=O)c1c(N)nn2cccnc12)c1cc(Cl)c2c(C#N)ncn2c1N1CCS(=O)(=O)C(C)C1 (stereo not drawn) [Example 165, trifluoroacetate salt]', '< 500 nM'),
  ('CC(NC(=O)c1c(N)nn2cccnc12)c1cc(Cl)c2c(C#N)ncn2c1N1CCS(=O)(=O)CC1 (racemic) [Example 164, trifluoroacetate salt]', '> 1000 nM'),
  ('CC(NC(=O)c1c(N)nn2cccnc12)c1cc(Cl)c2cncn2c1-c1cncc(C#N)c1 (racemic) [Example 137, trifluoroacetate salt]', '< 500 nM');
